Biological target: full-length beta-catenin (Axin site) (Homo sapiens, UniProt P35222)
Construct: 15 nM full-length beta-catenin, 20 nM FITC labeled peptide in buffer
Sequence (P35222 1-781): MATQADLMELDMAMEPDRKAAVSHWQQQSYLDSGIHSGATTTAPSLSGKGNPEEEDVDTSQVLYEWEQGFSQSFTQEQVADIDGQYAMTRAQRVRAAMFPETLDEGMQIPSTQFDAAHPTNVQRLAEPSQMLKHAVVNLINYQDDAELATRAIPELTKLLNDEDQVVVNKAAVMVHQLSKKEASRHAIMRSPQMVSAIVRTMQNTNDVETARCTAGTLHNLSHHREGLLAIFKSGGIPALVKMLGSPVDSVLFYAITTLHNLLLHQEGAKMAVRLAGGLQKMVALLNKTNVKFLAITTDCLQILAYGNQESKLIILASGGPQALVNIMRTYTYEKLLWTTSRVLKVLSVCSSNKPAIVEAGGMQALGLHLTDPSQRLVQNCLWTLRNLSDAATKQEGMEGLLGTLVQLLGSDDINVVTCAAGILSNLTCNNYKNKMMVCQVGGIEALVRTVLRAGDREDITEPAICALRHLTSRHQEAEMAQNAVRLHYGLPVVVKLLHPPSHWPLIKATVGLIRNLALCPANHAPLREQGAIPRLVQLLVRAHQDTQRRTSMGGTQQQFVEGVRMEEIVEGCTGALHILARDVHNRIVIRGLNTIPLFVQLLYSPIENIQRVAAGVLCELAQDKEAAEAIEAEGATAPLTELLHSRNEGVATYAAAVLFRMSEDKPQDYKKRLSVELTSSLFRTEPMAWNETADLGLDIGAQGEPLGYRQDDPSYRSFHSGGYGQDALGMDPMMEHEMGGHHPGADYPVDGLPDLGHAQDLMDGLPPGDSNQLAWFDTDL
Test: Competition fluorescence polarization assay (Axin site probe)
Assay type: binding
Settings: competition with FITC labeled Axin-site probe, 15 nM full-length beta-catenin; read-out: FP EC50
measuredQuantity: EC50 (nM)
Give your result in nM as a bare value.

Ask | Query EC50 for CC[C@H](C)[C@@H]1NC(=O)[C@@](C)(NC(=O)[C@H](CCC(N)=O)NC(=O)[C@@H]2CCCN2C(C)=O)CCCCCC=CCOC(=O)N2CC(C(=O)N[C@@H](Cc3c[nH]cn3)C(=O)N[C@H](C(=O)N[C@@H](CCCNC(=N)N)C(=O)N[C@@H](CCCNC(=N)N)C(=O)N[C@H](C(=O)N[C@@H](Cc3c[nH]c4ccccc34)C(=O)N[C@@H](CCCNC(=N)N)C(N)=O)C(C)C)C(C)C)(C2)NC(=O)[C@H](CC(=O)O)NC(=O)[C@H](CC(C)C)NC1=O (single isomer, unassigned) [FP-0738c, Ac-P-Q-S7-I-L-D-Az-H-V-R-R-V-W-R-NH2]
Reply | 1800
